Origin of measurements: ChEMBL document CHEMBL3301461

Tested on: Plasmodium falciparum
Test: MMV: Thermal shift assay for identifying inhibitors
Conditions: 3D7
Simple rule here: ΔTm less than 3 °C is y, otherwise n.

INSERT INTO assay_data (compound, system_tested, assigned_category) VALUES
  ('COc1ccc(C=C2SC(=N)N(c3ccccc3OC)C2=O)cc1', 'Plasmodium falciparum', 'n');

Does this compound meet the criterion ΔTm < 3 °C? COc1ccc2c(c1)OC(O)(C(F)(F)C(F)(F)F)CC2=O (configuration not stated)
n

Is the reported ΔTm for COc1cc2cc(C(=O)Nc3ccccc3)c(N)nc2cc1OC strictly below 3 °C?
y

Does the reported ΔTm of CCC(O)c1ccc(Br)cc1NC(=O)c1cccc(Cl)c1 (configuration not stated) stay below 3 °C?
y

# strict comparison: is reported ΔTm < 3 °C? input = CCN(CC)CCCNc1nc(-c2ccc(Cl)cc2)nc2ccccc12
n

Confirm or reject: ΔTm of CC1CCCCN1CCCNC(=O)c1ccc2c(c1)sc1nc(-c3ccc(F)cc3)cn12 (configuration not stated) lies strictly below 3 °C
y

Hello, I'm reviewing records and need to know if ΔTm of O=C(Nc1ccccc1O)c1ccc(Oc2cccc(C(=O)Nc3ccccc3O)c2)cc1 is below 3 °C. Could you check?
y

ΔTm under 3 °C? Item: Cc1sc2ncnc(Sc3nc4ccccc4[nH]3)c2c1C
y

Lab note: ΔTm threshold 3 °C. Does this compound come in strictly under it? O=C(Nc1ccc(Br)cc1)Nc1cccc(Cl)c1
n

====

Test system: Leishmania donovani
Test: MMV: Thermal shift assay for identifying inhibitors
VALUE_TYPE: ΔTm (°C)
Enter your answer as a number in °C; do not include the unit.

INSERT INTO results (compound, units_label, result) VALUES
  ('COc1cc(C(=O)Nc2ccc(-c3nc4ccccc4[nH]3)cc2)cc(OC)c1OC', '°C', 4.8),
  ('Cc1cc(C)cc(Nc2cc(C)nc3nc(C(F)(F)F)nn23)c1', '°C', 2.2);

What reported ΔTm corresponds to CCOc1cc2c(cc1OCC)C(c1cc(C)c(O)c(C)c1)NCC2 (configuration not stated) on Leishmania donovani?
3.3

Could you share what ΔTm was measured for CCOc1ccc(C2N(C)c3ccccc3N2C)cc1 , tested on Leishmania donovani?
2.5

====

Test system: Plasmodium falciparum
Assay: MMV: Thermal shift assay for identifying inhibitors
Conditions: 3D7
ΔTm for assorted molecules
Record the value in °C, omitting the unit from your answer.

INSERT INTO results (smiles_entry, value_type, result) VALUES
  ('O=C(NC1CCN(Cc2ccccc2)CC1)c1cc(-c2ccncc2)nc2ccc(Cl)cc12', 'ΔTm', 3);

Which value of ΔTm has been reported for Cc1cccc(-n2ncc3c(O)nc(-n4nc(C)cc4NC(=O)c4cc5ccccc5o4)nc32)c1 in the records?
12.7

Item CCOc1cccc(C(=O)Nc2ccc(-c3nc4ccccc4[nH]3)cc2)c1 has what recorded ΔTm?
2.9

Entry under review: CCN(Cc1ccccc1)C1CCN(Cc2cc(Br)ccc2O)CC1 . Reported ΔTm?
12.4

Fill in: ΔTm of COc1ccc(-c2cc(=O)oc3c4c(ccc23)OCN(Cc2ccc(F)cc2)C4)cc1 is ___
2.2

Report ΔTm for CC1CCN(Cc2ccc(NC(=O)c3cc4ccc5cccnc5c4[nH]3)cc2)CC1 please.
2.2

Any idea what ΔTm was measured for COc1ccc(Nc2nc(NCc3ccccc3)c3ccccc3n2)cc1 ?
2.4

What value of ΔTm has been reported for the following molecule? FC(F)(F)c1cccc(Nc2nc(-c3ccccc3)nc3ncccc23)c1
3.7

Entry CCOC(=O)c1cnc2ccc(Cl)cc2c1NCCCN(C)C has what ΔTm?
3.1

Looking for the measured ΔTm of COc1cc(OC)cc(C(=O)Nc2ccc(-c3nc4ccccc4[nH]3)cc2)c1 , can you help?
2.6

Look up ΔTm: CC(C)(C)C(=O)Nc1ccc(C(=O)Nc2cccc(-c3nc4ccccc4[nH]3)c2)cc1
2.3

Bench note: what ΔTm did CCN(CC)CCNc1ncnc2c1[nH]c1ccc(Cl)cc12 show?
2.3

Fill in: ΔTm of COc1cccc(C(=O)Nc2ccc(-c3nc4ccccc4[nH]3)cc2)c1 is ___
2.5

Sample O=c1cc(NC2CCN(CCCc3ccccc3)CC2)c2cc(Cl)ccc2o1 — what was its ΔTm?
3.1

Dear colleague, I am looking for the recorded ΔTm of the following molecule: CCCN(CCC)CCCNC(=O)c1cc2c(-c3ccc(OC)c(OC)c3)nn(C)c2s1
2

ΔTm for Cc1ccc(NC(=O)Nc2cccc(Cl)c2)cc1F ?
2.4

Need ΔTm, item COc1cccc(Nc2nc(NCCO)c3ccccc3n2)c1
2

Bench note: what ΔTm did FC(F)(F)c1cccc(Nc2nc3ccccc3nc2Nc2cccc(C(F)(F)F)c2)c1 show?
2.5
